Sourced from patent US6358885B1

# Tested on: sorghum
# assay_overview: Test C preemergence/postemergence greenhouse plant response rating 0 to 100
# Assay type: in vivo, Sorghum bicolor
# run_conditions: POSTEMERGENCE, 62 g/ha, 0 to 100 scale
measured_quantity: Plant response rating, Sorghum

Reference set (2 entries):
{"smiles_data": "CCOC(=O)COc1cc(-c2nn3c(c2Cl)CCCC3)c(F)cc1Cl", "Plant response rating, Sorghum": 60}
{"smiles_data": "Fc1cc(Cl)c(OCCCl)cc1-c1nn2c(c1Cl)CCCC2", "Plant response rating, Sorghum": 50}

Next item in the queue.
Ask: Consider the compound CCN1C(=O)COc2cc(F)c(-c3nn4c(c3Cl)CCCC4)cc21 . State its measured Plant response rating, Sorghum.
Reply: 60

---

Plant response rating, Rice for assorted compounds
# Test system: rice
# assay_overview: Test B preemergence/postemergence greenhouse plant response rating 0 to 10
# Type: in vivo, Oryza sativa
# run_conditions: Rate 200 g/ha, POSTEMERGENCE; 0 to 10 scale
Field format: numeric only.

{"smiles_data": "O=C1COc2cc(F)c(-c3nn4c(c3Cl)CCCC4)cc2N1", "assayed_target": "rice", "Plant response rating, Rice": 5}
{"smiles_data": "O=C1COc2cc(F)c(-c3nn4c(c3Br)CCCC4)cc2N1", "assayed_target": "rice", "Plant response rating, Rice": 8}
{"smiles_data": "CC(C)(C)C(=O)COc1cc(-c2nn3c(c2Cl)CCCC3)c(Cl)cc1Cl", "assayed_target": "rice", "Plant response rating, Rice": 6}

Next item in the queue.
Ask: Consider the compound FCCCOc1cc(-c2nn3c(c2Cl)CCCC3)c(F)cc1Cl . State its measured Plant response rating, Rice.
Reply: 6

---

Plant response rating, Chickweed for assorted molecules
# Tested on: chickweed
# assay_overview: Test B preemergence/postemergence greenhouse plant response rating 0 to 10
# Format: in vivo, Stellaria media
# run_conditions: PREEMERGENCE, Rate 50 g/ha; 0 to 10 scale
Field format: numeric only.

Ask: Consider the molecule C=CCOC(=O)COc1cc(-c2nn3c(c2Cl)CCCC3)c(F)cc1Cl . State its measured Plant response rating, Chickweed.
Reply: 0

Ask: Consider the molecule O=C1COc2cc(F)c(-c3nn4c(c3Cl)CCCC4)cc2N1 . State its measured Plant response rating, Chickweed.
Reply: 6

Ask: Consider the molecule COCOc1cc(-c2nn3c(c2Cl)CCCC3)c(F)cc1Cl . State its measured Plant response rating, Chickweed.
Reply: 10

---

# Test system: corn
# assay_overview: Test B preemergence/postemergence greenhouse plant response rating 0 to 10
# Type: in vivo, Zea mays
# run_conditions: POSTEMERGENCE, Rate 50 g/ha; 0 to 10 scale
measured_quantity: Plant response rating, Corn
Field format: numeric only.

{"smiles_data": "C#CCOC(=O)COc1cc(-c2nn3c(c2Cl)CCCC3)c(F)cc1Cl", "Plant response rating, Corn": 5}
{"smiles_data": "CON=C(C)c1cc(-c2nn3c(c2Cl)CCCC3)c(F)cc1Cl", "Plant response rating, Corn": 3}
{"smiles_data": "CCN1C(=O)COc2cc(F)c(-c3nn4c(c3Cl)CCCC4)cc21", "Plant response rating, Corn": 3}
{"smiles_data": "COCCOc1cc(-c2nn3c(c2Cl)CCCC3)c(Cl)cc1Cl", "Plant response rating, Corn": 3}
{"smiles_data": "COCN1C(=O)COc2cc(F)c(-c3nn4c(c3Cl)CCCC4)cc21", "Plant response rating, Corn": 5}

Ask: Consider the compound CCOC(=O)COc1cc(-c2nn3c(c2Cl)CCCC3)c(Cl)cc1Cl . State its measured Plant response rating, Corn.
Reply: 5

Ask: Consider the compound CCOCOc1cc(-c2nn3c(c2Cl)CCCC3)c(F)cc1Cl . State its measured Plant response rating, Corn.
Reply: 4
